Numbers sourced from ChEMBL document CHEMBL1140415.

Assay: In vitro hydrolytic stability in rat plasma, expressed as t1/2
Format: ADME, cell-free
experimentalReadout: half-life (s)

Examples from the recorded data:
>>> df
                                entrysmiles  value
0  COC(=O)CCC/C=C(\c1cccc(C#N)c1)c1cc(Cl)ccc1OC   25.2
1  COC(=O)c1cc(/C(=C\CCN2CCOC2=O)c2ccc(OC)c(OC)c2)cc(C)c1OC    346
2  COC(=O)CCC/C=C(\c1cc(F)cc(C(F)(F)F)c1)c1cc(C)c2on(C)c(=O)c2c1   52.2

[a] COC(=O)CCC/C=C(/c1cc(Cl)c(OC)c(C(=O)OC)c1)c1cc(Cl)ccc1OC
[b] COC(=O)CCC/C=C(\c1cccc(C#N)c1)c1cc(C)c2onc(OC)c2c1
// which entry has the larger half-life value, a or b ? Answer with the label corresponding to your selection.
b

----------
System: MT4
Assay: Cytotoxic concentration against mock infected in MT-4 cells
Assay type: functional
Conditions: Homo sapiens
Consider the following compounds and their measured CC50 readings.
Expressed in µM, but write only the number.

Known CC50 results, listed for orientation:
>>> print(df.to_string())
                                entrysmiles  experimentalreadout  value
0  COC(=O)CCC/C=C(\c1cccc(C#N)c1)c1cc(C)c2onc(OC)c2c1                 CC50   4.69
1  COC(=O)c1cc(/C(=C\CCN2CCOC2=O)c2ccc(OC)c(OC)c2)cc(C)c1OC                 CC50   1.05
2  COC(=O)CCC/C=C(\c1cccc(C#N)c1)c1cc(C)c(OC)c(C(=O)OC)c1                 CC50    153
3  COC(=O)CCC/C=C(\c1cc(F)cc(C(F)(F)F)c1)c1cc(C)c2on(C)c(=O)c2c1                 CC50   39.8
4  COC(=O)CCC/C=C(/c1cc(Cl)c(OC)c(C(=O)OC)c1)c1cc(Cl)ccc1OC                 CC50   5.41

Can you share its CC50? I mean this compound: "COc1ccc(/C(=C\CCN2CCOC2=O)c2cc(F)cc(C(F)(F)F)c2)cc1OC"
18.5

Item under review: "COC(=O)c1cc(/C(=C\CCN2CCOC2=O)c2cc(F)cc(C(F)(F)F)c2)cc(C)c1OC" . Reported CC50?
24.7

Given the entry "COC(=O)CCC/C=C(\c1cc(C)c(OC)c(C(=O)OC)c1)c1cc(Cl)ccc1OC" , report its measured CC50.
18.8

What value of measured CC50 is listed for "COC(=O)c1cc(C(=CCCN2CCOC2=O)c2ccc(OC)c(OC)c2)cc(C)c1OC" ?
82.5

----------
CC50: recorded values
Tested on: MT4
Assay: Cytotoxic concentration against mock infected in MT-4 cells
Assay type: functional
Details: Homo sapiens
A number alone suffices; assume µM.

>>> df
                                entrysmiles  unitstext  value
0  COC(=O)CCC/C=C(/c1cc(C)c(OC)c(C(=O)OC)c1)c1cc(Cl)ccc1OC         µM   13.8

Could you share which CC50 value was measured for "COC(=O)CCC/C=C(\c1cc(F)cc(C(F)(F)F)c1)c1cc(C)c(OC)c(C(=O)OC)c1" ?
5.7

Look at this compound and give its reported CC50. "COC(=O)CCC/C=C(\c1cccc(C#N)c1)c1cc(Cl)c(OC)c(C(=O)OC)c1"
213

What value of measured CC50 is listed for "COC(=O)CCC/C=C(/c1cc(F)cc(C(F)(F)F)c1)c1cc(C)c(OC)c(C(=O)OC)c1" ?
113
